Where do these numbers come from? They come from PubChem BioAssay (NCI).

- System: SK-OV-3 ovarian
- test description: NCI tumour cell line growth inhibition, 48 h
result type: TGI

> print(dat)
                                   compound  measured.target  observed.value
1  COC(=O)c1ccc2c(c1)nc(-c1ccc(Cl)cc1)n2-c1cc(C(C)(C)C)[nH]n1  SK-OV-3 ovarian           31 µM
2  CCOC(=O)/C(O)=C(\C=N\C(=S)Nc1ccc(Cl)c(Cl)c1)C(=O)OCC  SK-OV-3 ovarian        > 100 µM
3  O=C1C(c2ccccc2)=C(c2ccccc2)C(c2ccccc2)/C1=C1\C(=O)C(c2ccccc2)=C(c2ccccc2)C1c1ccccc1 (stereo not given)  SK-OV-3 ovarian        > 100 µM
4  COC(=O)CSc1[nH]c2nc(C)nc(Nc3ccccc3)c2c1C#N  SK-OV-3 ovarian         > 10 µM
5  C=C1C(=O)O[C@H]2C1C[C@@H](O)[C@@]1(C)OC1CC[C@@]1(C)O[C@H]21 (stereo not given in full)  SK-OV-3 ovarian        > 100 µM
